Hello, the source for this data is ChEMBL document CHEMBL5291721, in case you need it.

Measured AC50 on Glucocorticoid receptor (Homo sapiens) follows.
Sequence (P04150 whole entry): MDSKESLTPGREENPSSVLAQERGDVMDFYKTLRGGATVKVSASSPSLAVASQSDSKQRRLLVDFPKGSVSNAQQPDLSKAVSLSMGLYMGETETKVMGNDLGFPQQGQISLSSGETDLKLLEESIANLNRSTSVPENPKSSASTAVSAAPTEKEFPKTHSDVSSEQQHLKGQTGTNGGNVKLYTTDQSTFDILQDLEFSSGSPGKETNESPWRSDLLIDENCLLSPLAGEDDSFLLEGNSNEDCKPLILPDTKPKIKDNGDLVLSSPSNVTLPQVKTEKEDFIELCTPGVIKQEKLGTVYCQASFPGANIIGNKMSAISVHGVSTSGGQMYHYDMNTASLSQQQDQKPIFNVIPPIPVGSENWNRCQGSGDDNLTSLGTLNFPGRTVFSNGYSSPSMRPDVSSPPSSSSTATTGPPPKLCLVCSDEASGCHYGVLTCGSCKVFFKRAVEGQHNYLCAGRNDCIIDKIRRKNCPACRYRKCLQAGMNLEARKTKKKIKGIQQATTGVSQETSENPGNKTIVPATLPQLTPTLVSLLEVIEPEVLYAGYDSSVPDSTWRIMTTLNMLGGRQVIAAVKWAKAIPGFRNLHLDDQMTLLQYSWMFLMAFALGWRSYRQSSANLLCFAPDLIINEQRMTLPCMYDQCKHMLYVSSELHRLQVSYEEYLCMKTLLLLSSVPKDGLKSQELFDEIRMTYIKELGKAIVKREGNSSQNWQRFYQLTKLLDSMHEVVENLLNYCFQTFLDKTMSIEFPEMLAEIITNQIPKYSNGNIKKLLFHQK

- Compound: "C=C1CC[C@@]2(O)[C@H]3Cc4ccc(O)c5c4[C@@]2(CCN3CC2CC2)[C@H]1O5"
  AC50: "> 30 µM"
- Compound: "NS(=O)(=O)c1cc(Cl)c(Cl)c(S(N)(=O)=O)c1 [DICHLORPHENAMIDE]"
  AC50: "> 10 µM"
- Compound: "CN(C)[C@@H]1C(O)=C(C(N)=O)C(=O)[C@@]2(O)C(O)=C3C(=O)c4c(O)ccc(Cl)c4[C@@H](O)[C@H]3C[C@@H]12"
  AC50: "> 30 µM"
- Compound: "Cc1c(O)c(=O)ccn1C"
  AC50: "> 30 µM"
- Compound: "N[C@@H](C(=O)N[C@@H]1C(=O)N2C(C(=O)O)=C(Cl)CS[C@H]12)c1ccccc1 [CEFACLOR ANHYDROUS]"
  AC50: "> 30 µM"
- Compound: "O=C(Cn1ccnc1[N+](=O)[O-])NCc1ccccc1"
  AC50: "> 30 µM"
- Compound: "NS(=O)(=O)c1cc2c(cc1Cl)NCNS2(=O)=O [HYDROCHLOROTHIAZIDE]"
  AC50: "> 30 µM"
- Compound: "NC(=O)C[S+]([O-])C(c1ccccc1)c1ccccc1 (centres undefined)"
  AC50: "> 30 µM"
- Compound: "CC(C)NCC1CCc2cc(CO)c([N+](=O)[O-])cc2N1 (centres undefined)"
  AC50: "> 10 µM"

* * *

target: 5-hydroxytryptamine receptor 3A (Homo sapiens); type: functional; note: assay procedure not described here
Sequence (P46098 whole entry): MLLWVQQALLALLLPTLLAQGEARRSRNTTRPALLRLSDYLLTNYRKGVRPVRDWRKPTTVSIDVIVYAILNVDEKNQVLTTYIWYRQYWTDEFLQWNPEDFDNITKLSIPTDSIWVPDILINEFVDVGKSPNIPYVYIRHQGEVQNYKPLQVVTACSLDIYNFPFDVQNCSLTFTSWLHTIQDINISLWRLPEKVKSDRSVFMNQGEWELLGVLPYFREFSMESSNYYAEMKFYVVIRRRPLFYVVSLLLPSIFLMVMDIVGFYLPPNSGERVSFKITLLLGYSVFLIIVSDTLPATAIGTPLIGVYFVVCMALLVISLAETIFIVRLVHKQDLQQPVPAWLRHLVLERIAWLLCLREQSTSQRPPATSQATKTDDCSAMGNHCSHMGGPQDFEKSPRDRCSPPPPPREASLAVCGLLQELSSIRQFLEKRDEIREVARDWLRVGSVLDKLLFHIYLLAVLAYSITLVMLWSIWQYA
# Lookup of reported AC50 keyed by entry

- Compound: "O=C(Nc1ccccc1)OCC(CN1CCCCC1)OC(=O)Nc1ccccc1 (centres undefined)"
  AC50: "> 10 µM"
- Compound: "CN(C)C(=O)OC1N=C(c2ccccc2)c2cc(Cl)ccc2N(C)C1=O (centres undefined)"
  AC50: "> 10 µM"
- Compound: "O=C(Cn1ccnc1[N+](=O)[O-])NCc1ccccc1"
  AC50: "> 30 µM"
- Compound: "O=C(O)CCCc1ccccc1"
  AC50: "> 30 µM"
- Compound: "CC(C(=O)O)c1ccc(N2CC=CC2)c(Cl)c1 (centres undefined)"
  AC50: "> 30 µM"
- Compound: "O=C(NC[C@H]1CN(c2ccc(N3CCOCC3=O)cc2)C(=O)O1)c1ccc(Cl)s1"
  AC50: "> 30 µM"
- Compound: "NC(=O)c1cnccn1 [PYRAZINAMIDE]"
  AC50: "> 30 µM"
- Compound: "NS(=O)(=O)c1cc2c(cc1Cl)NC(CC1CCCC1)NS2(=O)=O (centres undefined) [CYCLOPENTHIAZIDE]"
  AC50: "> 30 µM"
- Compound: "O=C(C[S+]([O-])C(c1ccccc1)c1ccccc1)NO (centres undefined)"
  AC50: "> 30 µM"
- Compound: "COc1c(N2CCNC(C)C2)c(F)cc2c(=O)c(C(=O)O)cn(C3CC3)c12 (centres undefined)"
  AC50: "> 30 µM"
- Compound: "C[C@H]1C[C@@H]2[C@H]([C@@H](O)C[C@@]3(C)[C@H]2CC[C@]3(O)C(=O)COC(=O)CCC(=O)O)[C@@]2(C)C=CC(=O)C=C12 [METHYLPREDNISOLONE HEMISUCCINATE]"
  AC50: "> 30 µM"
- Compound: "CN1CCCC(n2nc(Cc3ccc(Cl)cc3)c3ccccc3c2=O)CC1 (centres undefined)"
  AC50: "2.4 µM"
- Compound: "CCCCOc1cc(C(=O)NCCN(CC)CC)c2ccccc2n1"
  AC50: "> 30 µM"
- Compound: "CO/N=C(\\C(=O)N[C@@H]1C(=O)N2C(C(=O)[O-])=C(C[N+]3(C)CCCC3)CS[C@H]12)c1csc(N)n1"
  AC50: "> 300 µM"
- Compound: "CCN1CCC[C@H]1CNC(=O)c1cc(S(N)(=O)=O)ccc1OC [LEVOSULPIRIDE]"
  AC50: "> 30 µM"
- Compound: "C#CCN(C)[C@H](C)Cc1ccccc1"
  AC50: "> 30 µM"
- Compound: "CCCCCCCCOc1ccccc1C(=O)Nc1ccc(C(=O)OCC[N+](C)(CC)CC)cc1 [OTILONIUM BROMIDE]"
  AC50: "> 30 µM"
- Compound: "COc1ccc2cccc(CCNC(C)=O)c2c1"
  AC50: "> 30 µM"
- Compound: "CNC(=O)c1cc(Oc2ccc(NC(=O)Nc3ccc(Cl)c(C(F)(F)F)c3)cc2)ccn1"
  AC50: "> 30 µM"
